- System: M14 melanoma
- Experiment Notes: NCI-60 one-dose screen, 48 h
- Assay Setup: 10 µM unless noted
The panel holds about 83,000 compounds, 20% with a hit somewhere; the sample as a whole holds those more often. The source made the active and inactive calls. The calls were made as follows: active = growth percent below 10; inactive = the rest.
Classes used: active, inactive

- Molecule: "NC[C@@H]1CCN(c2cc3c(cc2F)c(=O)n(N)c(=O)n3Cc2ccc(-c3ccccc3)cc2)C1"
  Assigned Class: "inactive"
- Molecule: "CCCCCCN1C(=O)CN=C1Nc1ccc2cc3ccc(NC4=NCC(=O)N4CCCCCC)cc3nc2c1"
  Assigned Class: "inactive"
- Molecule: "c1ccc(-c2n(Cc3ccc4ccccc4n3)cc[n+]2Cc2ccc3ccccc3n2)cc1"
  Assigned Class: "inactive"
- Molecule: "O=C(Nc1ccccc1)NS(=O)(=O)c1c[nH]c(=S)[nH]c1=O"
  Assigned Class: "inactive"
- Molecule: "O=C1C(Cl)=C(Nc2ccc3c(c2NC2=C(Cl)C(=O)c4ccccc4C2=O)C(=O)c2ccccc2C3=O)C(=O)c2ccccc21"
  Assigned Class: "active"
- Molecule: "COC(=O)/C=C1\\SC(=Nc2cccc(Cl)c2)N(CCc2c[nH]c3ccccc23)C1=O"
  Assigned Class: "inactive"
- Molecule: "CCN(CC)CC#CCOC(=O)[C@]1(C)CCC[C@]2(C)[C@H]3C[C@H]4C(C(C)C)=C[C@]3(CC[C@H]21)[C@@H]1C(=O)CCC(=O)[C@@H]14"
  Assigned Class: "inactive"
- Molecule: "CCCCc1n(Cc2ccc3ccccc3c2)c2ccccc2[n+]1Cc1ccc2ccccc2c1"
  Assigned Class: "active"
- Molecule: "COC(=O)/C=C1\\SC(=Nc2ccc(C(F)(F)F)cc2)N(CCc2c[nH]c3ccccc23)C1=O"
  Assigned Class: "active"
- Molecule: "C[C@H](Oc1cc(-c2cnn(C3CCNCC3)c2)cnc1N)c1c(Cl)ccc(F)c1Cl"
  Assigned Class: "active"
- Molecule: "O=c1c2ccccc2n(CC(O)CN2CCCC2)c2c(Br)cccc12 (centres undefined)"
  Assigned Class: "inactive"
- Molecule: "O=C(N/N=C/C[C@@H]1[C@@H](/C=C/[C@@H](O)COc2cccc(Cl)c2)[C@H](O)C[C@@H]1O)c1ccncc1"
  Assigned Class: "inactive"
- Molecule: "COc1ccc2nc(-c3ccc(Cl)cc3)cc(C(=O)N3N=C(c4ccc(N)cc4)CC3c3ccccc3)c2c1 (centres undefined)"
  Assigned Class: "inactive"
- Molecule: "COc1cc(C)ccc1Oc1nc(Nc2ccc(N3CCOCC3)cc2)ncc1N=Cc1cc(C(F)(F)F)cc(C(F)(F)F)c1"
  Assigned Class: "inactive"
- Molecule: "O=C(CCCC(=O)Nc1ccc(-n2nnc3cc(Cl)c(Cl)cc32)cc1)Nc1ccc(-n2nnc3cc(Cl)c(Cl)cc32)cc1"
  Assigned Class: "inactive"
- Molecule: "C=C1C(=O)O[C@H]2[C@H]1CC/C(COC(=O)n1ccnc1)=C\\CC[C@@]1(C)O[C@@H]21"
  Assigned Class: "inactive"
- Molecule: "CCN1CCN(Cc2ccc(NC(=O)c3cccc(C#Cc4cccc5[nH]nc(N)c45)c3)cc2C(F)(F)F)CC1"
  Assigned Class: "active"
- Molecule: "[2H]c1nc(Nc2ncc3cc(C(=O)N(C)C)n(C4CCCC4)c3n2)c([2H])c([2H])c1N1C([2H])([2H])C([2H])([2H])NC([2H])([2H])C1([2H])[2H]"
  Assigned Class: "inactive"
- Molecule: "O=c1[nH]c2ccccc2cc1-c1nc2ccncc2[nH]1"
  Assigned Class: "inactive"
- Molecule: "O=C(CN1N=C(c2ccc(F)cc2)CCC1=O)Nc1nc2ccccc2s1"
  Assigned Class: "inactive"
- Molecule: "N#Cc1ccc(N2Cc3cc(Cl)ccc3OC3=C2C(=O)N(Cc2ccccc2)C3=O)cc1"
  Assigned Class: "active"
- Molecule: "Cc1cccc(C)c1NC(=O)CN(CC(C)C)CC(O)COc1ccccc1 (centres undefined)"
  Assigned Class: "inactive"
- Molecule: "CCc1c(C(=O)N[C@@H](C(=O)OCc2ccccc2)C(C)O)[nH]c2ccc(Cl)cc12 (some centres undefined)"
  Assigned Class: "inactive"
- Molecule: "Cc1nc2sc(C(=O)Nc3ccccc3Cl)c(N)c2cc1C(C)O (centres undefined)"
  Assigned Class: "inactive"
